# measured.on: ubiquitin (S. cerevisiae) (S. cerevisiae, UniProt P0CG63 1-76)
# protocol.description: SPR
outcome.measure: Kd (µM)

binder | Kd / µM
UBZ-C (a.a. 545~608) of S. cerevisiae Polη, GST fusion (domain or fragment, UniProt Q04049 545-608, looked up) EKTPKLECCKYQVTFTDQKALQEHADYHLALKLSEGLNGAEESSKNLSFGEKRLLFSRKRPNSQ | 15.8
UBZ-N (a.a. 515~580) of S. cerevisiae Polη, GST fusion (domain or fragment, UniProt Q04049 515-580, looked up) VVDMFGNQVHTFKSSAGKEDEEKTTSSKADEKTPKLECCKYQVTFTDQKALQEHADYHLALKLSEG | 18.2
